molecular target: ACAT in J774 cell (Mus musculus, UniProt Q61263); construct: endogenous in cells; test: ACAT inhibiting activity in J774 cell (anti-foaming activity); settings: J774 cell, 10 μg/ml 25-OH cholesterol, 18 hours; cholesterol ester per protein; read-out: J 774 Cell-Derived Enzyme IC50
Sequence (Q61263 whole entry): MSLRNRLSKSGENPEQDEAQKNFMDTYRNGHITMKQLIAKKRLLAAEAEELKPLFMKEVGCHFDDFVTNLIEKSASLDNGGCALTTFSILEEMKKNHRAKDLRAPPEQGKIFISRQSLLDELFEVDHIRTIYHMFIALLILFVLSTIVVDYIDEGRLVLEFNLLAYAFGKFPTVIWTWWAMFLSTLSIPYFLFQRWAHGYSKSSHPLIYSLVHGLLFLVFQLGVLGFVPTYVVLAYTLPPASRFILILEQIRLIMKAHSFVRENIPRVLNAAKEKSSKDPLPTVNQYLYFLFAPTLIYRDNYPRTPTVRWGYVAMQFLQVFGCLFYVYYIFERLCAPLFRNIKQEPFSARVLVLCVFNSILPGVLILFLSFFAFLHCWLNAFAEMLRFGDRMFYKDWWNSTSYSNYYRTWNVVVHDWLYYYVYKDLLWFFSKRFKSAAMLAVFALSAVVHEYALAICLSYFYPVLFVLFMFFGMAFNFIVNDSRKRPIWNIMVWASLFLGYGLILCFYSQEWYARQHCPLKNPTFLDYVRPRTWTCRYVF
reported_endpoint: IC50 (µM)
Numbers only, in µM.

// below: answered compounds
CCCCCCCCCCCCCCSCC(=O)Nc1c(C(C)C)cccc1C(C)C [Control (2), reference compound]: 0.15
CCCCCCCN(CCCCCSc1nc(-c2ccccc2)c(-c2ccccc2)[nH]1)c1nc2ccccc2o1 [Control (4), reference compound]: 0.12

# batch: return IC50 for each of the 2 compounds below
1. CC(C)c1cccc(C(C)C)c1NC(=O)CCSc1nc2ccccc2o1
2. CC(C)c1cccc(C(C)C)c1NC(=O)CCCSc1nc2ccccc2s1

# output
[0.47, 5.6]

# map each compound to its IC50
1. CC(C)c1cccc(C(C)C)c1NC(=O)CSc1nc2ccccc2[nH]1
2. CC(C)c1cccc(C(C)C)c1NC(=O)CSc1nc2ccccc2o1

# output
2.2
1.2

These entries and their values trace back to patent US6825223B2.
